assayMethodText: qHTS assay to identify small molecule antagonists of the sonic hedgehog signaling (Shh) pathway - cell viability counter screen (AID 1259367); further: nearly all actives have a fitted effect of over 55% in size
conditionLabel: NIH/3T3 Gli1-Luc viability, CellTiter-Fluor, 24 h; series mostly up to 92.4 µM
Text: National Center for Advancing Translational Sciences [NCATS] NIH Chemical Genomics Center [NCGC] U.S. Environmental Protection Agency [EPA] National Institutes of Environmental Health Sciences [NIEHS] National Toxicology Program [NTP] U.S. Food and Drug Administration [FDA] The sonic hedgehog (Shh) pathway is essential for normal embryonic development. Dysregulation of the Shh pathway can cause severe developmental defects in organs. […]
Records with an inconclusive call do not appear. Calls of active or inactive are those of the source. The call rests on the fitted dose curve; in most records, active means well fitted cell-killing curve with a large enough effect in the repeat runs; inconclusive means weak or mixed curves, or effect the other way; inactive means no such curve, though single readings can be large or run the other way.
Assign a class; possible classes are class 1 (active), class 0 (inactive)

Previously resolved entries follow.
CC(C)(C)C(=O)O ... class 0
CCCC1C(CC)=CC(CC)=CN1c1ccccc1 (stereo unspecified) ... class 0
CCOC(=O)c1ccccc1C ... class 0

Record lookup: outcome of this test for `O=C(N/N=C/c1ccc([N+](=O)[O-])o1)c1ccc(O)cc1` ?
class 1

Fill in: this test's call for `Nc1ccc(S(=O)(=O)O)c(N)c1` is ___
class 0

In this assay, the call recorded for `O=C(O)c1ccccc1NCCc1ccccc1` was what?
class 0

Answer briefly: the call reported for `Cc1cc(C(=C2C=CC(=Nc3ccc(S(=O)(=O)O)cc3S(=O)(=O)O)C=C2)c2ccc(Nc3ccc(S(=O)(=O)O)cc3)cc2)ccc1N` in this assay.
class 0

Which outcome was assigned to `O=C(N[C@@H](c1ccccc1)[C@@H]1CCCCN1)c1cccc(C(F)(F)F)c1Cl` in this test?
class 1

Hi, sorry to bother you, what did the test record for `CCCCCCCCCCCC[N+](C)(C)CC(=O)[O-]` ?
class 0

Record request — test call for `CO[Si](C)(OC)OC`
class 0

Could you check what this test reported for `CCCCCCOC(=O)C(C)C` ?
class 0

Which outcome was assigned to CN1C(=O)CC(C)(c2ccccc2)C1=O (stereo unspecified) in this test?
class 0

Query: recorded result category for `CN(C)C(=O)Nc1ccc(Oc2ccc(Cl)cc2)cc1` in this test
class 0

Would you mind telling me which call this test gave `CC#N` ?
class 0

Hi team, can someone confirm the assay call for CCCCC1C(=O)N(c2ccccc2)N(c2ccc(O)cc2)C1=O (stereo unspecified) ?
class 1

Tell me the assay call for CC(C)(C)C(=O)C(Oc1ccc(Cl)cc1)n1ccnc1 (stereo unspecified) please.
class 0

Would you mind telling me which call this test gave `CC[C@@H]([C@H](C)O)n1ncn(-c2ccc(N3CCN(c4ccc(OC[C@@H]5CO[C@@](Cn6cncn6)(c6ccc(F)cc6F)C5)cc4)CC3)cc2)c1=O` ?
class 0

Please state the recorded outcome for this compound: `CN1CCCN=C1/C=C/c1cccs1`
class 0

Hi team, can someone confirm the assay call for `NC(=O)Nc1ccc(Cl)cc1` ?
class 0
